Cited source for all entries: the supplement of paper PMC12042874

assay: amyloid nucleation score (Sup35N fusion, yeast selection) (log enrichment); library NNK2; higher = more nucleation; inactive = no reads after selection;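 note: zero at mode of non-aggregating sequences after 7 days selection at 30°C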
recorded_metric: amyloid nucleation score

// known answers, use as guide
>>> result("CGNLSCPVGVCGIFRRPSTG")
"inactive"
>>> result("NSMSDLFSFSY")
"inactive"
>>> result("FITEDLVRAFANYVND")
"inactive"
>>> result("LSYRHNGPHPGGYNCTGSRV")
"inactive"
>>> result("NLNVGALSSKWVW")
"inactive"
>>> result("AFEFQYFIGGFRTRIMNCVF")
"inactive"
>>> result("DYLKLLAYNVLFR")
"inactive"

Turning now to a further record.
Value of measured amyloid nucleation score for the entry `CLCPTNYDSSRIYLVRC` : inactive
